test system: Fibroblast; assay: Multiplex assay against human fibroblast; format: toxicity, cell-based; conditions: 48 h, 1 µM, compound concentration 1 uM, replicate 1
measure name: Total Cell Count
// no unit, no text: just the number

{"molecule": "O=C(O)c1ccc2cc(-c3ccc(O)c(C45CC6CC(CC(C6)C4)C5)c3)ccc2c1 [O-DEMETHYLATED ADAPALENE]", "Total Cell Count": 267}
{"molecule": "CC(C)N1CCC(C)(C)c2cc(C#Cc3ccc(C(=O)O)cc3)ccc21", "Total Cell Count": 202}
{"molecule": "COc1ccc(NS(=O)(=O)c2sc3ccc(Cl)cc3c2C)cc1N1CCNCC1.Cl", "Total Cell Count": 134}
{"molecule": "Nc1nc2c(c(N3CCNCC3)n1)CCC1=C2[C@@H]2CCCC[C@@H]2O1", "Total Cell Count": 296}
{"molecule": "CC(=O)c1cc(-c2cc(C(=O)NC3CC3)ccc2C)c2ncccn12", "Total Cell Count": 119}
{"molecule": "CCC(=O)O[C@]1(C(=O)SCF)[C@H](C)C[C@H]2[C@@H]3C[C@H](F)C4=CC(=O)C=C[C@]4(C)[C@@]3(F)[C@@H](O)C[C@@]21C [FLUTICASONE PROPIONATE]", "Total Cell Count": 95}

Prompt: # input molecule: COc1cc2c(NC3CCN(C(C)C)CC3)nc(N3CCC(F)(F)CC3)nc2cc1OCCCN1CCCC1 ; wanted: its Total Cell Count
Response: 231

Prompt: # input molecule: CCCn1c(=O)c2[nH]c(C34CC5CC(CC3C5)C4)nc2n(CCC)c1=O [ROLOFYLLINE] ; wanted: its Total Cell Count
Response: 118

Prompt: # input molecule: Cc1cc2c(cc1N1C(=O)c3cccc4c(CCCO)ccc(c34)C1=O)n(C)c(=O)n2C ; wanted: its Total Cell Count
Response: 129

Prompt: # input molecule: Cl.Cl.Nc1ncnc2c1c(-c1cccc(OCc3ccccc3)c1)cn2[C@H]1C[C@@H](CN2CCC2)C1 ; wanted: its Total Cell Count
Response: 132

----------
test system: Fibroblast; assay: Multiplex assay against human fibroblast; assay type: toxicity, cell-based; conditions: 12 h, 1 µM, compound concentration 1 uM, replicate 2
Reported Population Hoechst High Intensity Objects (%) values are given for each entry in this list.
The response must be a number in % with no trailing unit.

Solved entries:
{"compound": "COc1cc2c(Nc3ccc(NC(=O)c4ccccc4)cc3)ncnc2cc1OCCCN1CCOCC1", "value units": "%", "quantitative result": 30}
{"compound": "N#Cc1cnc(Nc2cc(NC[C@H]3CNCCO3)c(C(F)(F)F)cn2)cn1", "value units": "%", "quantitative result": 35}
{"compound": "CCc1cc2c(cc1CC)CC(NC[C@H](O)c1ccc(O)c3[nH]c(=O)ccc13)C2", "value units": "%", "quantitative result": 7}
{"compound": "CC(C)Oc1ccc(C(=O)N[C@H](CNC(=O)CN(C)C)Cc2ccc(-c3cn4cccc([C@H](C)O)c4n3)cc2)cc1Cl [GSK-923295A]", "value units": "%", "quantitative result": 31}
{"compound": "COc1cc(N2CCC(N(C)C)CC2)ccc1Nc1ncc(Cl)c(Nc2ccccc2P(C)(C)=O)n1", "value units": "%", "quantitative result": 24}
{"compound": "CCOc1cc(N2CCC(O)CC2)ccc1Nc1ncc2c(n1)N(C1CCCC1)CCC(=O)N2C", "value units": "%", "quantitative result": 33}
{"compound": "Cl.Cl.NC1(c2ccc(-c3nc4ccn5c(=O)[nH]nc5c4cc3-c3ccccc3)cc2)CCC1", "value units": "%", "quantitative result": 45}
{"compound": "c1ccc2oc(-c3csc(C4CCN(Cc5nc6ncccc6[nH]5)CC4)n3)cc2c1", "value units": "%", "quantitative result": 34}

Prompt: Please tell me: Population Hoechst High Intensity Objects (%) of Cc1cn(-c2cc(NC(=O)c3ccc4c(c3)CN(c3cncnc3)C[C@@H]4C)cc(C(F)(F)F)c2)cn1 , system Fibroblast?
Response: 30

Prompt: Please tell me: Population Hoechst High Intensity Objects (%) of CNc1oc(-c2cccc3ccccc23)nc1C#N , system Fibroblast?
Response: 15

Prompt: Please tell me: Population Hoechst High Intensity Objects (%) of CCCn1c(=O)c2[nH]c(C34CC5CC(CC3C5)C4)nc2n(CCC)c1=O , system Fibroblast?
Response: 3

Prompt: Please tell me: Population Hoechst High Intensity Objects (%) of CN(C)C/C=C/C(=O)Nc1cc2c(Nc3ccc(F)c(Cl)c3)ncnc2cc1O[C@H]1CCOC1.O=C(O)/C=C\C(=O)O.O=C(O)/C=C\C(=O)O [AFATINIB DIMALEATE] , system Fibroblast?
Response: 38

Prompt: Please tell me: Population Hoechst High Intensity Objects (%) of Cl.Cl.Nc1ncnc2c1c(-c1cccc(OCc3ccccc3)c1)cn2[C@H]1C[C@@H](CN2CCC2)C1 , system Fibroblast?
Response: 6

Prompt: Please tell me: Population Hoechst High Intensity Objects (%) of CC(C)(C)c1cnc(CSc2cnc(NC(=O)C3CCNCC3)s2)o1 , system Fibroblast?
Response: 37

Prompt: Please tell me: Population Hoechst High Intensity Objects (%) of Nc1ccc(C(=O)Nc2cccc(-c3nc(N4CCOCC4)c4oc5ncccc5c4n3)c2)cn1 , system Fibroblast?
Response: 10

Prompt: Please tell me: Population Hoechst High Intensity Objects (%) of CNC(=O)c1cc(Oc2ccc(NC(=O)Nc3cc(C(C)(C)C)nn3-c3ccc4ncccc4c3)c(F)c2)ccn1 , system Fibroblast?
Response: 38
